- STUDY TARGET: human O-GlcNAcase (Homo sapiens (Human))
- Sequence (O60502 whole entry): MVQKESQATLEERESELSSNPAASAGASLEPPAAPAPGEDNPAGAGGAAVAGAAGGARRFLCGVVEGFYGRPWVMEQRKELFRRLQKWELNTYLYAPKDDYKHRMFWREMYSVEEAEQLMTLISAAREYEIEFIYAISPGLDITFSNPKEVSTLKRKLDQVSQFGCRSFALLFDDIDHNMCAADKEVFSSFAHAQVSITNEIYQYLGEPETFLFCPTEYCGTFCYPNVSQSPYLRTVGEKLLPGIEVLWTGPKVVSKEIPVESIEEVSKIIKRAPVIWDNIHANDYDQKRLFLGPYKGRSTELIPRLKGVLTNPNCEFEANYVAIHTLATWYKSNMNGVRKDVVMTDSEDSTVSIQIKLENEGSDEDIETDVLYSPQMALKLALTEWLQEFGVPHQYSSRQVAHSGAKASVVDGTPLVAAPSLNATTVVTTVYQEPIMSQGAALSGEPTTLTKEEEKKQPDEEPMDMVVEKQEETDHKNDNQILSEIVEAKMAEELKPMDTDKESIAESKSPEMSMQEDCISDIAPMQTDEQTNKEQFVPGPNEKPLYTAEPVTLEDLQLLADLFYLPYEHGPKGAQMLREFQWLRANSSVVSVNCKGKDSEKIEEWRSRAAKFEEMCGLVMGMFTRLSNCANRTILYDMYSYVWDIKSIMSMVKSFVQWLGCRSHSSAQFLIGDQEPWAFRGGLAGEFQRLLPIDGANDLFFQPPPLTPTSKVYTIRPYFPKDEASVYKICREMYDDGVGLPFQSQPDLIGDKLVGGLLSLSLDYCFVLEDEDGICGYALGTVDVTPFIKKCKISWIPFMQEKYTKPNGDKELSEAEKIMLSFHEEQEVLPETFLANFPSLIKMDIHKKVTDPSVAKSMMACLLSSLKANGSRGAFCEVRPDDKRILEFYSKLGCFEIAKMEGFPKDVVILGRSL
MEASUREMENT TYPE: Ki (nM)
Quick reminder: number only, in nM, skip the unit.

{"STRUCTURE NOTATION": "CNC1=N[C@@H]2[C@@H](O)[C@H](O)[C@@H]([C@H](C)O)C[C@@H]2O1", "Ki / nM": 0.26}
{"STRUCTURE NOTATION": "C[C@@H](O)[C@H]1C[C@@H]2OC(N(C)C)=N[C@@H]2[C@@H](O)[C@@H]1O", "Ki / nM": 4.5}
{"STRUCTURE NOTATION": "CCCNC1=N[C@@H]2[C@@H](O)[C@H](O)[C@@H]([C@H](C)O)C[C@@H]2O1", "Ki / nM": 7.1}

Request: Form field: reported Ki of `C[C@H](O)[C@H]1C[C@@H]2OC(N(C)C)=N[C@@H]2[C@@H](O)[C@@H]1O`
Result: 0.26

---

Reported Ki for target or system human O-GlcNAcase (Homo sapiens (Human)), by entry.
Your reply should be a number followed by the unit it is expressed in.

// solved cases for Ki follow
{"COMPOUND": "CCNC1=N[C@@H]2[C@@H](O)[C@H](O)[C@@H](C(C)(C)O)C[C@@H]2O1 [Example 7]", "RESULT": "93 nM"}
{"COMPOUND": "C[C@@H](O)[C@@H]1C[C@H]2OC(N(C)C)=N[C@H]2[C@H](O)[C@H]1O (single isomer, unassigned) [Example 4]", "RESULT": "437 nM"}

Below: the item to evaluate.
Request: Form field: reported Ki of CCCNC1=N[C@@H]2[C@@H](O)[C@H](O)[C@@H](C(C)(C)O)C[C@@H]2O1 [Example 8]
Result: 1670 nM
